Organism: Rattus norvegicus
TEST_DESCRIPTION: DrugMatrix - Regimen: Daily Repeat
Type: toxicity, organism-based, Sprague-Dawley
Parameters: regimen Daily Repeat, gender Male, age 6-8 weeks
REPORTED_CONDITIONS: in vivo, po, 0 mg/kg, 72 h, tissue Plasma, route oral GAVAGE, dose level Control, time 3 day, vehicle 100 % WATER
OBSERVATION_TYPE: BLOOD UREA NITROGEN (mg/dL)
Write the value in mg/dL as a bare number.

[ask] Quick one: give measured BLOOD UREA NITROGEN for CC(C)NCC(O)COc1cccc2ccccc12 (stereo not given)
[reply] 15.33

[ask] Supply BLOOD UREA NITROGEN value. Item: ClC(Cl)Cl [CHLOROFORM]
[reply] 15.83

[ask] For COC(=O)C1=C(C)NC(C)=C(C(=O)OCC(C)C)C1c1ccccc1[N+](=O)[O-] (stereo not given) , write its BLOOD UREA NITROGEN.
[reply] 13.67

[ask] Specify reported BLOOD UREA NITROGEN for the compound shown: COc1cc2ncnc(Nc3ccc(F)c(Cl)c3)c2cc1OCCCN1CCOCC1
[reply] 16.33

[ask] Retrieve BLOOD UREA NITROGEN measured for CC(C)C[C@H](NC(=O)[C@@H](O)[C@H](N)Cc1ccccc1)C(=O)O and print it.
[reply] 15.5

[ask] Determine from records and report BLOOD UREA NITROGEN for Nc1ccn([C@@H]2CS[C@H](CO)O2)c(=O)n1
[reply] 12.83

[ask] Tell me BLOOD UREA NITROGEN reported for C[N+](C)(C)CCO.[Cl-] [CHOLINE CHLORIDE]
[reply] 14.5

[ask] Give reported BLOOD UREA NITROGEN value for Cc1ncc([N+](=O)[O-])n1CCO
[reply] 15.83

[ask] Look up and report measured BLOOD UREA NITROGEN for this entry: C[C@@H]1C[C@@H]([C@H](O)CC2CC(=O)NC(=O)C2)C(=O)[C@@H](C)C1 [CYCLOHEXIMIDE]
[reply] 16

[ask] Supply measured BLOOD UREA NITROGEN of CC(C)(C)c1ccc(C(=O)CCCN2CCC(OC(c3ccccc3)c3ccccc3)CC2)cc1 in your reply.
[reply] 14.67

---

Hi there, I'd appreciate the recorded ALKALINE PHOSPHATASE for every entry that follows.
Organism: Rattus norvegicus
TEST_DESCRIPTION: DrugMatrix - Regimen: Daily Repeat
Type: toxicity, organism-based, Sprague-Dawley
Design: regimen Daily Repeat, gender Male, age 6-8 weeks
REPORTED_CONDITIONS: in vivo, po, 0 mg/kg, 120 h, tissue Plasma, route oral GAVAGE, dose level Control, time 5 day, vehicle .5 % CMC
State the answer as a number, implicitly in u/L.

[ask] Give ALKALINE PHOSPHATASE for the following compound: CC(C)[C@H]1CC[C@H](C(=O)N[C@H](Cc2ccccc2)C(=O)O)CC1 [NATEGLINIDE]
[reply] 362.33

[ask] For the compound C[C@]1(Cn2ccnn2)[C@H](C(=O)O)N2C(=O)C[C@H]2S1(=O)=O [TAZOBACTAM] , report ALKALINE PHOSPHATASE.
[reply] 336

[ask] Indicate the recorded ALKALINE PHOSPHATASE value for this compound: O=C1CCC(N2C(=O)c3ccccc3C2=O)C(=O)N1 (stereo not drawn) [THALIDOMIDE]
[reply] 419

[ask] Quick one: give measured ALKALINE PHOSPHATASE for O=[N+]([O-])c1ccccc1 [NITROBENZENE]
[reply] 348.17

[ask] Identify ALKALINE PHOSPHATASE associated with the compound N=C(N)NC(=O)c1nc(Cl)c(N)nc1N [AMILORIDE]
[reply] 377.5

[ask] Indicate the recorded ALKALINE PHOSPHATASE value for this compound: CC[C@@H](CO)NCCN[C@@H](CC)CO [ETHAMBUTOL]
[reply] 377.5

[ask] Using known records, supply ALKALINE PHOSPHATASE for Clc1ccc2c(c1)C(N1CCNCC1)=Nc1ccccc1O2 [AMOXAPINE]
[reply] 382.5

[ask] Give a short answer stating reported ALKALINE PHOSPHATASE for C#C[C@]1(O)CC[C@H]2[C@@H]3CCc4cc(OC)ccc4[C@H]3CC[C@@]21C [MESTRANOL] .
[reply] 373.17

Data credit: ChEMBL document CHEMBL3885881
